Tested on: Ba/F3-Flt3-ITD cells
Test: Ba/F3-Flt3-ITD cell proliferation/cytotoxicity (Yo-Pro)
Assay type: cell-based
Conditions: Ba/F3 cells dependent on mutant Flt3, 48 hours, read-out: IC50 in the assay described by example 14
ASSAY ENDPOINT: pIC50
The meaning of pIC50 here: minus log10 of the concentration in molar units.

[in] What value of pIC50 has been recorded for this entry: NC1CCC(Nc2nc(Nc3ccc(C(=O)N4CCCCC4)cc3)c3ncn(-c4ccsc4)c3n2)CC1 (stereo not shown)
[out] 8.30
